Data credit: patent US9802941B2

Molecular target: KDM5B (PLU-1) (Homo sapiens, UniProt Q9UGL1)
Construct: BRIC; 1-809; E. coli; host or cells: E. coli
Sequence (Q9UGL1 1-809): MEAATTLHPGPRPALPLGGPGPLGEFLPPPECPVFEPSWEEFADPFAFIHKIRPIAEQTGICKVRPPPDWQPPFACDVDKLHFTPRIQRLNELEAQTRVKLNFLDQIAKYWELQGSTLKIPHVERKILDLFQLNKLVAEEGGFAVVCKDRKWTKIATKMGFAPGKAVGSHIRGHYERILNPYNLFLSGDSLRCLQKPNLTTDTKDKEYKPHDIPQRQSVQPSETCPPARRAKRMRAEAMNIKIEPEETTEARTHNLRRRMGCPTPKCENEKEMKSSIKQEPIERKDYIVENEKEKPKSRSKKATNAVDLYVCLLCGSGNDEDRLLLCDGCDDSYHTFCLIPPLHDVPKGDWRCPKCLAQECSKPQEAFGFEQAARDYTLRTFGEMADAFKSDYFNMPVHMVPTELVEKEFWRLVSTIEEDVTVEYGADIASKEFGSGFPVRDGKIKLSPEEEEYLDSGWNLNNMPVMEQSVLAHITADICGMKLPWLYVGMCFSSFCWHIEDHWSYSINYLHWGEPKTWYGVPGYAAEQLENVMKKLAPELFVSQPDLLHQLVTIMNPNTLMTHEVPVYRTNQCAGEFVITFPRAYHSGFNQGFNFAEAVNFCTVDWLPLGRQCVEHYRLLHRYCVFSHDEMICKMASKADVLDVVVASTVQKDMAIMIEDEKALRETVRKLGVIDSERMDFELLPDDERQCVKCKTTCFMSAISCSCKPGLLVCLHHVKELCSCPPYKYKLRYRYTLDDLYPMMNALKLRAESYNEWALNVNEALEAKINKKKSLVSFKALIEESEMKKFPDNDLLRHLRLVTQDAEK
Assay: Histone lysine demethylase AlphaLISA assay, KDM5B
Assay type: biochemical
Conditions: AlphaLISA, in vitro; read-out: HDME Inhibition KDM5B

| compound | system name | IC50 |
| --- | --- | --- |
| Cc1cc(C(=O)O)cc(CNCc2nnc(C(C)O)n2Cc2ccc(F)cc2)n1 (stereo not drawn) | KDM5B (PLU-1) (Homo sapiens, UniProt Q9UGL1) | > 10 µM |
| C/C=C/c1cnc(CNCc2cc(C(=O)O)cc(C)n2)n1Cc1ccc(F)cc1 | KDM5B (PLU-1) (Homo sapiens, UniProt Q9UGL1) | > 10 µM |
| Cc1cc(C(=O)O)cc(CNCc2nncn2C/C=C/c2ccccc2)n1 | KDM5B (PLU-1) (Homo sapiens, UniProt Q9UGL1) | > 10 µM |

###

biological target: PHF8 (KDM7) (Homo sapiens, UniProt Q9UPP1); construct: KDM7 (PHF8); BRIC; 1-1322; Bac; test: Histone lysine demethylase AlphaLISA assay, PHF8; type: biochemical; conditions: AlphaLISA, in vitro; read-out: HDME Inhibition PHF8
Sequence (Q9UPP1 37-440 limits assumed): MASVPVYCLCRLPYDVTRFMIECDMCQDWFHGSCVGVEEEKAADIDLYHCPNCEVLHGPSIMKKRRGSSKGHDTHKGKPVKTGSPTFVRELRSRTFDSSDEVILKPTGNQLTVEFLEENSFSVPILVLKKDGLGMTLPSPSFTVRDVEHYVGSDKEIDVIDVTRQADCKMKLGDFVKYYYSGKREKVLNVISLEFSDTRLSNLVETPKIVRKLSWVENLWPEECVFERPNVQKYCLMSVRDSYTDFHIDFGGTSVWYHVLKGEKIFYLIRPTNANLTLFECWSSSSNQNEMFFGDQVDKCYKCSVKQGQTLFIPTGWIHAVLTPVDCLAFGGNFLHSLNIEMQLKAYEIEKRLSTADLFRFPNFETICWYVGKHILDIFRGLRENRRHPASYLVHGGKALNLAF
# IC50 per record follows
test readout: IC50

| compound | system name | result |
| --- | --- | --- |
| Cc1cc(C(=O)O)cc(CNCCc2nncn2Cc2ccc(C(F)(F)F)cc2)n1 [Compound 60] | PHF8 (KDM7) (Homo sapiens, UniProt Q9UPP1) | > 10 µM |
| COc1ccc(CCn2ccnc2CNCc2cc(C(=O)O)cc(C)n2)cc1 [Compound 17] | PHF8 (KDM7) (Homo sapiens, UniProt Q9UPP1) | > 10 µM |
| COc1ccc(O)c(CCNCc2cc(C(=O)O)cc(CO)n2)n1 [Compound 109] | PHF8 (KDM7) (Homo sapiens, UniProt Q9UPP1) | > 10 µM |
| Cc1ccc(OCCC(C)C)c(CCNCc2cc(C(=O)O)cc(C)n2)c1 [Compound 89] | PHF8 (KDM7) (Homo sapiens, UniProt Q9UPP1) | > 10 µM |
| CC(C)C[C@@H](CO)NCc1cc(C(=O)O)cc(CO)n1 [Compound 79] | PHF8 (KDM7) (Homo sapiens, UniProt Q9UPP1) | > 10 µM |
| Cc1cc(C(=O)O)cc(CN[C@H]2CCc3cccnc32)n1 [Compound 7] | PHF8 (KDM7) (Homo sapiens, UniProt Q9UPP1) | > 10 µM |
| Cc1cc(C(=O)O)cc(CNCc2nccn2Cc2cccc(CN)c2)n1 [Compound 48] | PHF8 (KDM7) (Homo sapiens, UniProt Q9UPP1) | > 10 µM |
| NCc1cc(C(=O)O)cc(CN)n1 [Compound 110] | PHF8 (KDM7) (Homo sapiens, UniProt Q9UPP1) | > 10 µM |
| Cc1cc(C(=O)O)cc(CNCc2nnc(C3CC3)n2Cc2ccc(F)cc2)n1 [Compound 38] | PHF8 (KDM7) (Homo sapiens, UniProt Q9UPP1) | > 10 µM |
| CCCCc1cccnc1CCNCc1cc(C(=O)O)cc(C)n1 [Compound 15] | PHF8 (KDM7) (Homo sapiens, UniProt Q9UPP1) | > 6 µM |
| Cc1cc(C(=O)O)cc(CN[C@H](CO)CC(C)C)n1 [Compound 23] | PHF8 (KDM7) (Homo sapiens, UniProt Q9UPP1) | > 10 µM |
